B1: PPEF2 (parent)
chain: AFKAAALIQRWYRRYVARLEMRRR

Variants of: B1
measurement-description: protein stability index of a GFP-peptide fusion (GPS, HEK-293T) (PSI 1-6); higher = more stable;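 also: lentivirally expressed fusions sorted by FACS into six bins by GFP to DsRed ratio, PSI derived from sequencing read proportions per bin multiplied by bin number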
test-conditions: c terminus: a fixed tail appended
measure: protein stability index

sequence-change: K3I
result: 2.66

sequence-change: I8R
result: 3.09

sequence-change: A6Y
result: 1.75

sequence-change: L7G
result: 2.33

sequence-change: L19V
result: 3.42

sequence-change: R10A
result: 2.4

sequence-change: W11D
result: 2.79

sequence-change: R22S
result: 2.68

sequence-change: R13K
result: 2.22

sequence-change: R10N
result: 3.6

sequence-change: A6E
result: 3.81

sequence-change: L19T
result: 4.63

sequence-change: F2L
result: 3.99

sequence-change: M21T
result: 3.06

sequence-change: A1G
result: 2.17

sequence-change: A6D
result: 3.14

sequence-change: Q9A
result: 3.25

sequence-change: M21E
result: 4.73

sequence-change: R23M
result: 1.94

sequence-change: M21V
result: 3.7

sequence-change: A4G
result: 3.69

sequence-change: K3F
result: 2.38

From: the supplement of paper PMC10567573
